Target: DNA gyrase (Escherichia coli) (UniProt P0AES6+P0AES4)
Assay: In vitro antibacterial activity against gram-negative organism Prov. stuartii CMX-640
Type: functional
Details: Providencia stuartii
Sorting guide: entries reporting MIC beneath 3 µg/mL go in the 1 pile, the rest go in the -1 pile.

Qu. Hello, is MIC of the following compound strictly smaller than 3 µg/mL? Cc1c(N2C[C@@H](N)[C@@H](C)C2)c(F)cn2c(=O)c(C(=O)O)cc(C3CC3)c12
Ans. 1

Qu. Is MIC of Cc1c(N2CCC(N(C)C)C2)c(F)cn2c(=O)c(C(=O)O)cc(C3CC3)c12 (centres undefined) strictly below 3 µg/mL?
Ans. -1

Qu. Confirm or reject: MIC of CO[C@@H]1CN(c2c(F)cn3c(=O)c(C(=O)O)cc(C4CC4)c3c2C)C[C@H]1N lies strictly below 3 µg/mL
Ans. -1

Qu. Please determine if Cc1c(N2C[C@@H](N)C[C@H]2C)c(F)cn2c(=O)c(C(=O)O)cc(C3CC3)c12 is below 3 µg/mL in terms of MIC.
Ans. -1

Qu. Does NC1CCN(c2nc3c(C4CC4)cc(C(=O)O)c(=O)n3cc2F)C1 (centres undefined) have MIC strictly under 3 µg/mL?
Ans. 1

Qu. hey, is MIC for O=C(O)c1cc(C2CC2)c2cc(N3CCNCC3)c(F)cn2c1=O lower than 3 µg/mL or not?
Ans. 1

Qu. For this compound, is MIC lower than 3 µg/mL? Cc1c(-n2ccnc2)c(F)cn2c(=O)c(C(=O)O)cc(C3CC3)c12
Ans. -1

Qu. For Cc1c(NCCN)c(F)cn2c(=O)c(C(=O)O)cc(C3CC3)c12 , is the recorded MIC below the cut-off of 3 µg/mL?
Ans. -1

Qu. Dear colleague, could you confirm whether MIC of CCc1c(N2CCC(N)C2)c(F)cn2c(=O)c(C(=O)O)cc(C3CC3)c12 (centres undefined) falls below 3 µg/mL? Thanks.
Ans. -1

Qu. API: query returns whether the compound falls strictly under 3 µg/mL in MIC. Query: Cc1c(N2CC[C@@H]3CNC[C@@H]32)c(F)cn2c(=O)c(C(=O)O)cc(C3CC3)c12
Ans. 1

Qu. Check if MIC falls below 3 µg/mL for Cc1c(N2C[C@@H](N)C[C@@H]2C)c(F)cn2c(=O)c(C(=O)O)cc(C3CC3)c12 .
Ans. 1

Qu. For Cc1c(N2CCC(c3ccccn3)C2)c(F)cn2c(=O)c(C(=O)O)cc(C3CC3)c12 (centres undefined) , is the recorded MIC below the cut-off of 3 µg/mL?
Ans. 1

Qu. # TODO verify MIC < 3 µg/mL strictly for this compound: CC(=O)N[C@H]1C[C@H](C)N(c2nc3c(-c4ccc(F)cc4F)cc(C(=O)O)c(=O)n3cc2F)C1
Ans. -1

Qu. Threshold test, MIC < 3 µg/mL: Cc1c(F)c(N2CCC(N)C2)cc2c(C3CC3)cc(C(=O)O)c(=O)n12 (centres undefined)
Ans. -1

Qu. A record lists Cc1c(N2CCC(C)(N)C2)c(F)cn2c(=O)c(C(=O)O)cc(C3CC3)c12 (centres undefined) . Is its MIC below 3 µg/mL?
Ans. 1

Qu. Lab note: MIC threshold 3 µg/mL. Does this compound come in strictly under it? Cc1c(N2CC[C@@]3(C[C@@H]3N)C2)c(F)cn2c(=O)c(C(=O)O)cc(C3CC3)c12
Ans. 1

Qu. Does Cc1c(N2CCC(n3cccc3)C2)c(F)cn2c(=O)c(C(=O)O)cc(C3CC3)c12 (centres undefined) have MIC strictly under 3 µg/mL?
Ans. 1

Qu. Answer whether the compound Cc1c(N2CC[C@@H](O)C2)c(F)cn2c(=O)c(C(=O)O)cc(C3CC3)c12 has MIC strictly less than 3 µg/mL
Ans. 1

Qu. hey, is MIC for CN1CCN(c2nc3c(-c4ccc(F)cc4)cc(C(=O)O)c(=O)n3cc2F)CC1 lower than 3 µg/mL or not?
Ans. -1
